Assign Activity to each entry below.
- Test system: MCF7
- assay.remarks: Cell cycle arrest in human MCF7 cells assessed as accumulation at G2/M phase using propidium iodide staining at 4 uM after 24 hrs by flow cytometry
- Format: functional
Answers are plain numbers, in %.

Please review the entries below; each comes with its answer.
COc1cc2c(cc1OCCCN1CCN(CCCOc3ccc4c(c3)CC[C@@H]3[C@@H]4CC[C@]4(C)[C@@H](O)CC[C@@H]34)CC1)N=C[C@@H]1CCCN1C2=O = 24.01
COc1cc2c(cc1O)N=C[C@@H]1CCCN1C2=O = 4.83

Give the measured Activity of COc1cc2c(cc1OCc1cn(CCCCCOc3ccc4c(c3)CC[C@@H]3[C@@H]4CC[C@]4(C)[C@@H](O)CC[C@@H]34)nn1)N=C[C@@H]1C[C@@H](F)CN1C2=O . 32.4

* * *

- assay.remarks: Cytotoxicity against human DWD cells by sulforhodamine B method
- Assay type: functional
value.kind: GI50 (nM)
Give bare numbers, in nM.

The following compounds have reported results that may help.
COc1cc2c(cc1OCCCOc1ccc3c(c1)CC[C@@H]1[C@@H]3CC[C@]3(C)[C@@H](O)CC[C@@H]13)N=C[C@@H]1CCCN1C2=O = 170
COc1cc2c(cc1OCCCCCN1CCN(CCCCCOc3ccc4c(c3)CC[C@@H]3[C@@H]4CC[C@]4(C)[C@@H](O)CC[C@@H]34)CC1)N=C[C@@H]1CCCN1C2=O = 170
COc1cc2c(cc1OCc1cn(CCCOc3ccc4c(c3)CC[C@@H]3[C@@H]4CC[C@]4(C)[C@@H](O)CC[C@@H]34)nn1)N=C[C@@H]1CCCN1C2=O = 160
COc1cc2c(cc1OCCCOc1ccc3c(c1)CC[C@@H]1[C@@H]3CC[C@]3(C)[C@@H](O)CC[C@@H]13)N=C[C@@H]1CC(F)(F)CN1C2=O = 2040

Requested field: GI50. Item: COc1cc2c(cc1OCCCCCOc1ccc3c(c1)CC[C@@H]1[C@@H]3CC[C@]3(C)[C@@H](O)CC[C@@H]13)N=C[C@@H]1C[C@@H](F)CN1C2=O 1900

* * *

Give measured GI50 for each item. Keep answers brief.
- Test system: KB
- assay.remarks: Cytotoxicity against human KB cells by sulforhodamine B method
- Type: functional
Counter-ions that a name gives are not always drawn.

COc1cc2c(cc1OCCCOc1ccc3c(c1)CC[C@@H]1[C@@H]3CC[C@]3(C)[C@@H](O)CC[C@@H]13)N=C[C@@H]1CC(F)(F)CN1C2=O = 0.15 µM

Please supply GI50 for each of the following items, keeping them in order.
1. COc1cc2c(cc1OCc1cn(CCCCCOc3ccc4c(c3)CC[C@@H]3[C@@H]4CC[C@]4(C)[C@@H](O)CC[C@@H]34)nn1)N=C[C@@H]1C[C@@H](F)CN1C2=O
2. COc1cc2c(cc1OCCCCCN1CCN(CCCCCOc3ccc4c(c3)CC[C@@H]3[C@@H]4CC[C@]4(C)[C@@H](O)CC[C@@H]34)CC1)N=C[C@@H]1CC(F)(F)CN1C2=O
3. COc1cc2c(cc1O)N=C[C@@H]1CCCN1C2=O
4. COc1cc2c(cc1OCCCCCOc1ccc3c(c1)CC[C@@H]1[C@@H]3CC[C@]3(C)[C@@H](O)CC[C@@H]13)N=C[C@@H]1C[C@@H](F)CN1C2=O
5. COc1cc2c(cc1OCCCN1CCN(CCCOc3ccc4c(c3)CC[C@@H]3[C@@H]4CC[C@]4(C)[C@@H](O)CC[C@@H]34)CC1)N=C[C@@H]1CCCN1C2=O
6. COc1cc2c(cc1OCc1cn(CCCOc3ccc4c(c3)CC[C@@H]3[C@@H]4CC[C@]4(C)[C@@H](O)CC[C@@H]34)nn1)N=C[C@@H]1CC(F)(F)CN1C2=O
7. COc1cc2c(cc1OCc1cn(CCCCCOc3ccc4c(c3)CC[C@@H]3[C@@H]4CC[C@]4(C)[C@@H](O)CC[C@@H]34)nn1)N=C[C@@H]1CCCN1C2=O
8. COc1cc2c(cc1OCCCOc1ccc3c(c1)CC[C@@H]1[C@@H]3CC[C@]3(C)[C@@H](O)CC[C@@H]13)N=C[C@@H]1CCCN1C2=O

< 0.1 µM
0.81 µM
0.17 µM
2.17 µM
0.19 µM
0.19 µM
0.8 µM
2.11 µM

Give me GI50 for each of these molecules, listed below.
1. COc1cc2c(cc1OCCCCCOc1ccc3c(c1)CC[C@@H]1[C@@H]3CC[C@]3(C)[C@@H](O)CC[C@@H]13)N=C[C@@H]1CC(F)(F)CN1C2=O
2. COc1cc2c(cc1OCc1cn(CCCOc3ccc4c(c3)CC[C@@H]3[C@@H]4CC[C@]4(C)[C@@H](O)CC[C@@H]34)nn1)N=C[C@@H]1C[C@@H](F)CN1C2=O

1. 0.14 µM
2. < 0.1 µM

For every listed record, write down its GI50.
1. COc1cc2c(cc1OCCCOc1ccc3c(c1)CC[C@@H]1[C@@H]3CC[C@]3(C)[C@@H](O)CC[C@@H]13)N=C[C@@H]1C[C@@H](F)CN1C2=O
2. COc1cccc2c1C(=O)c1c(O)c3c(c(O)c1C2=O)C[C@@](O)(C(=O)CO)C[C@@H]3O[C@H]1C[C@H](N)[C@H](O)[C@H](C)O1 [DOXORUBICIN HYDROCHLORIDE]
3. COc1cc2c(cc1OCCCN1CCN(CCCOc3ccc4c(c3)CC[C@@H]3[C@@H]4CC[C@]4(C)[C@@H](O)CC[C@@H]34)CC1)N=C[C@@H]1CC(F)(F)CN1C2=O
4. COc1cc2c(cc1OCc1cn(CCCCCOc3ccc4c(c3)CC[C@@H]3[C@@H]4CC[C@]4(C)[C@@H](O)CC[C@@H]34)nn1)N=C[C@@H]1CC(F)(F)CN1C2=O
5. COc1cc2c(cc1OCCCN1CCN(CCCOc3ccc4c(c3)CC[C@@H]3[C@@H]4CC[C@]4(C)[C@@H](O)CC[C@@H]34)CC1)N=C[C@@H]1C[C@@H](F)CN1C2=O

1. 2.16 µM
2. 0.17 µM
3. 0.17 µM
4. 0.19 µM
5. 0.12 µM

// provenance: ChEMBL document CHEMBL1765029
